experiment: changes in parasitized red cell lysis, either direction – P. falciparum Indochina, OD700, 3 h, PSAC antagonist project, primary screen (AID 1156); details: P. falciparum-infected erythrocytes, osmotic lysis, higher = more signal, called active from +8 up or from −8 down
Classify by measured z-score: rule met if it is equal to or exceeds 0.4, rule not met if it is smaller.

Could you please find out whether [N-]=[N+]=NCc1ccccc1[C@H]1OC(c2ccc(OCCCO)cc2)=N[C@@]1(Cc1ccccc1)C(=O)NCC(O)CO (stereo partly drawn) has z-score that meets 0.4 or exceeds it?
rule met

Please answer likewise for "C#C[C@H]1Oc2ccccc2S(=O)(=O)N2CCC[C@@H]12"
rule not met

Please answer likewise for "CCOC(=O)C1=C[C@@H](C(C)(C)C)N(S(=O)(=O)c2ccc(C)cc2)[C@H]1c1ccc(Cl)c(Cl)c1"
rule not met

Please answer likewise for "C[N+](C)(C)CCCCNC(=O)[C@H]1C[C@H]2C(=O)N3CCC[C@H]3C(=O)N2[C@H]1c1ccc(O)cc1"
rule not met

Please answer likewise for O=C1OCC=C[C@H]2OC34C=CCN(c5ccc6ccccc6c5)C(=O)[C@H]3N(CCO)C(=O)[C@@H]4[C@@H]12 (stereo partly drawn)
rule met

Please answer likewise for "NC(=O)[C@@]1(CCS(=O)(=O)c2ccccc2)N=C(c2ccc(OCCCO)cc2)O[C@H]1c1ccccc1"
rule met

Please answer likewise for "C=CCN1C(=O)[C@]2(COC(c3ccc(OCCCO)cc3)=N2)Cc2ccccc21"
rule met

====

assay: probe aLAP1 signal on lysate-treated microarray – cell lysate, small-molecule microarray, COS7 lysate, primary screen (AID 1124); conditions: probe aLAP1, fluorescence, higher = more signal;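 note: lysate comes from COS7 cells expressing LAP1 and is applied at 0.3 µg/mL; score merges spot fluorescence near 667 nm with signal-to-noise over triplicate slides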
MEASURED PROPERTY: composite z-score
Quick one: just the number, no unit, thanks!

Field request: composite z-score | item: "COc1ccc([Si](C)(C)[C@@H]2[C@@H](CCn3cc([C@H](O)c4ccccc4)nn3)O[C@]3(C(=O)N(C)c4ccccc43)[C@H]2C)cc1"
0.0014

Please answer likewise for "CN(C)CCCC[C@@H]1NC(=O)[C@@H]2C[C@H](C(=O)NCCCCCN)[C@H](c3ccc(O)cc3)N2C1=O"
0.443

Please answer likewise for "COCCOC(=O)N1C(=O)[C@@]2(c3cc(C#CC4=CCCCC4)ccc31)[C@H](C(=O)N1CCN(c3ncccn3)CC1)[C@H]1C(=O)O[C@H](c3ccccc3)[C@H](c3ccccc3)N1[C@@H]2c1ccc(OCCO)cc1"
0.358

Please answer likewise for CCN(CC)c1ccc(N2CC=CC34O[C@@H]5/C=C\CCC(C)OC(=O)C5[C@H]3C(=O)N(CCCCCCO)[C@@H]4C2=O)cc1 (some centres undefined)
-0.458

Please answer likewise for COc1cc(NN2C(C(O)c3ccccc3)C=CC3C(=O)N(c4ccccc4)C(=O)C32)cc(OC)c1OC (centres undefined)
0.263

Please answer likewise for "C=CCN1C(=O)[C@]2(Cc3ccccc31)N=C(c1ccc(OCCCO)cc1)O[C@@H]2c1ccccc1"
0.339

Please answer likewise for "CC(C)[Si]1(C(C)C)O[C@@H](c2ccccc2)c2cc(-c3ccc(-c4ccc(Cl)c(Cl)c4)o3)nc(CCc3ccccc3)c21"
0.312

Please answer likewise for C=CCC(OC(C)=O)[C@@H]1[C@@H](N(Cc2ccc(-c3ccccc3)cc2)C(=O)c2ccc(C)cc2)c2cc(OCCCO)ccc2N1C(=O)Cc1ccc(OC)cc1 (some centres undefined)
0.179

Please answer likewise for "COC(=O)[C@@]1(Cc2ccc(F)cc2)[C@H]2c3cc(C(=O)N(C)C)n(Cc4ccccn4)c3C[C@H]2CN1C(=O)c1ccccc1"
1.08

Please answer likewise for O=C1OCCC/C=C\[C@H]2OC34C=CCN(CCN5CCOCC5)C(=O)[C@H]3N(CCO)C(=O)[C@@H]4C12 (some centres undefined)
-0.0129

Please answer likewise for O=C1C2C=CC(C(O)c3ccc(B(O)O)cc3)N(Nc3ccc([N+](=O)[O-])cc3)C2C(=O)N1c1ccccc1 (centres undefined)
0.588

Please answer likewise for CCCCN1CC=CC23O[C@@H]4C=CCCOC(=O)C4[C@H]2C(=O)N(CCCO)[C@@H]3C1=O (some centres undefined)
-0.469

Please answer likewise for "COC(=O)[C@@]1(Cc2ccc(OC)cc2)[C@H]2c3cc(C(=O)N(C)C)n(Cc4ccc(OC)c(OC)c4)c3C[C@H]2CN1C(=O)c1ccccc1"
0.457

Please answer likewise for "NC(=O)[C@]1(Cc2ccccc2)N=C(c2ccc(OCCCO)cc2)O[C@@H]1c1ccccc1"
0.583

====

Assignment: determine reported composite z-score for the given compounds.
test system: XIP peptide (Xip251-270); experiment: compounds binding XIP fragment 251-270 – biochemical, small-molecule microarray, fluorescence 635/667 nm, 0.5 µg/mL protein, primary screen (AID 1183); conditions: fluorescence 635 nm, higher = more signal
Quick one: just the number, no unit, thanks!

Field request: composite z-score | item: "COc1ccc(C#Cc2ccc3c(c2)[C@]2(C(=O)N3)[C@H](c3ccc(OCCO)cc3)N3[C@H](c4ccccc4)[C@H](c4ccccc4)OC(=O)[C@H]3[C@@H]2C(=O)Nc2nc3ccccc3s2)cc1"
0.522

Please answer likewise for "O=C1C[C@@](C(=O)O)(c2ccc([N+](=O)[O-])cc2)[C@@H](c2ccc(CO)cc2I)N1C1CCCCC1"
0.553

Please answer likewise for "Cc1ccc(S[C@]2(C(=O)NCCCN(C)C)CC(=O)N(C(C)C)[C@@H]2c2ccc(CO)cc2I)cc1"
0.412

Please answer likewise for "COc1ccc([Si](C)(C)[C@H]2[C@H](CCO)O[C@@]3(C(=O)N(Cc4cccc(N5C(=O)c6cccc7cccc5c67)c4)c4ccccc43)[C@@H]2C)cc1"
0.512

Please answer likewise for "C=CCN1Cc2ccccc2C[C@@]2(COC(c3ccc(OCCCO)cc3)=N2)C1=O"
0.793

Please answer likewise for "O=C(CS)NCCCCCNC(=O)[C@H]1C[C@H]2C(=O)N[C@@H](Cc3ccccc3)C(=O)N2[C@H]1c1cccc(OCCO)c1"
0.812

Please answer likewise for "NC(=O)NCC#Cc1ccc2c(c1)[C@]1(C(=O)N2)[C@H](c2ccc(O)cc2)N2[C@H](c3ccccc3)[C@H](c3ccccc3)OC(=O)[C@H]2[C@@H]1C(=O)N1CCN(c2ncccn2)CC1"
0.466

Please answer likewise for CCOC1=C2C(c3ccc(C)cc3)N(S(=O)(=O)c3ccc(C)cc3)CC2n2c(=O)n(-c3ccccc3)c(=O)n2C1 (stereo not drawn)
0.846

Please answer likewise for "COCCn1c(C(=O)N2CCCC2)cc2c1C[C@H]1CN(C(=O)c3ccccc3)[C@@](Cc3ccc(OC)cc3)(C(=O)OC)[C@@H]21"
0.603

Please answer likewise for "COc1ccccc1CN1C(=O)c2ccccc2[C@](Cc2ccccc2I)(C(=O)NCc2ccccc2)[C@@H]1c1ccc(CO)cc1"
0.801

Please answer likewise for "C=C[C@H](OC)[C@@H](OC(=O)Nc1ccc(SC)cc1)c1ccc(OCCO)cc1"
-0.0661

Please answer likewise for "O=c1cccc(-c2ccc3ccccc3c2)o1"
-0.688

Please answer likewise for "[N-]=[N+]=Nc1ccccc1[C@@H]1OC(c2ccc(OCCCO)cc2)=N[C@]1(CCS(=O)(=O)c1ccccc1)C(=O)O"
0.727

Please answer likewise for "C=CCOC(=O)[C@@H]1[C@H]2C(=O)O[C@H](c3ccccc3)[C@H](c3ccccc3)N2[C@H](c2ccc(OCCOC(=O)[C@H]3C[C@H]4C(=O)N[C@@H](Cc5ccccc5)C(=O)N4[C@H]3c3ccc(O)cc3)cc2)[C@@]12C(=O)Nc1ccc(I)cc12"
0.81

Please answer likewise for "CC(C)(C)OC(=O)CC[C@@]1(C(N)=O)N=C(c2ccc(OCCCO)cc2)O[C@@H]1c1ccccc1N=[N+]=[N-]"
0.839

Please answer likewise for "O=C1c2ccccc2[C@@]2(Cc3ccccc3N(Cc3ccccc3)C2=O)[C@H](c2ccc(CO)cc2)N1Cc1ccccc1C(F)(F)F"
0.878

Please answer likewise for "C=C(CCCC)/C(=C/C[C@H](OC(C)=O)c1ccc(CO)o1)c1cc(C(=O)OC)ccc1OC"
0.73

Please answer likewise for CN1C(=O)C2C(C1=O)C1C=C(c3ccc(CO)cc3)C2C(C2CC2)N1Cc1cc2c(cc1Br)OCO2 (stereo not drawn)
0.832

Please answer likewise for C=CCC(OC(C)=O)[C@@H]1[C@@H](N(Cc2ccc(-c3cccc(C(F)(F)F)c3)o2)C(=O)Cc2ccc(OC)cc2)c2cc(OCCCO)ccc2N1C(=O)Cc1ccc(OC)cc1 (stereo partly drawn)
0.278

Please answer likewise for "COC(=O)[C@@]1(Cc2ccc(F)cc2)[C@H]2c3cc(C(=O)N(C)C)n(CCc4c[nH]c5ccc(OC)cc45)c3C[C@H]2CN1C(=O)c1ccccc1"
-0.21

Please answer likewise for "CO[C@H]1O[C@H](CO)[C@@H](OC(=O)Nc2ccccc2-c2ccccc2)[C@H](OC(=O)Nc2ccccc2-c2ccccc2)[C@H]1OC(=O)Nc1ccccc1-c1ccccc1"
0.861

Please answer likewise for "Cc1cccc(/C=C/C=O)c1"
0.838

Please answer likewise for "NC(=O)[C@@]1(CCS(=O)(=O)c2ccccc2)N=C(c2ccc(OCCCO)cc2)O[C@H]1c1ccccc1"
0.863

Please answer likewise for "Cc1ccc(S[C@]2(C(=O)NCCCN(C)C)CC(=O)N(Cc3ccccc3)[C@@H]2c2ccc(CO)cc2)cc1"
0.135

Please answer likewise for CC(C)(C)OC(=O)CC[C@@]1(C(=O)NCC(O)CO)N=C(c2ccc(OCCCO)cc2)O[C@@H]1c1ccccc1 (stereo partly drawn)
0.942

Please answer likewise for "COCCn1c(C(=O)N(C)C)cc2c1C[C@H]1CN(C(=O)c3ccccc3)[C@@](Cc3ccc(F)cc3)(C(=O)OC)[C@@H]21"
0.0743

Please answer likewise for "Cc1ccc(S[C@]2(C(=O)NCCN3CCOCC3)CC(=O)N(C3CCCCC3)[C@@H]2c2ccc(CO)cc2)cc1"
0.886

Please answer likewise for "COc1ccc([Si](C)(C)[C@H]2[C@H](CC(=O)N3Cc4ccccc4C[C@H]3CO)O[C@@]3(C(=O)N(Cc4cccc(I)c4)c4ccccc43)[C@@H]2C)cc1"
0.287
